System: Hepatotoxicity
Assay: Human drug-induced liver injury (DILI) modelling dataset from Ekins et al
Settings: Liver
readout.kind: Hepatotoxicity

# example entries with known answers
1) Cl.NCCNCCNCCN | DILI positive (test set)
2) CO[C@H]1/C=C/O[C@@]2(C)Oc3c(C)c(O)c4c(c3C2=O)C2=NC3(CCN(CC(C)C)CC3)NC2=C(NC(=O)/C(C)=C\C=C\[C@H](C)[C@H](O)[C@@H](C)[C@@H](O)[C@@H](C)[C@H](OC(C)=O)[C@@H]1C)C4=O | DILI positive (test set)
3) OCC(S)CS (stereo unspecified) | DILI positive (test set)
4) CC(C)(C)NC(=O)[C@@H]1C[C@@H]2CCCC[C@@H]2CN1C[C@@H](O)[C@H](Cc1ccccc1)NC(=O)[C@H](CC(N)=O)NC(=O)c1ccc2ccccc2n1.CS(=O)(=O)O [SAQUINAVIR MESYLATE] | DILI positive (test set)
5) c1cc[n+]2c(c1)-c1cccc[n+]1CC2 | DILI positive (test set)
6) COc1ccc2cc([C@H](C)C(=O)O)ccc2c1 | DILI negative (test set)
7) CCN(CC)Cc1cc(Nc2ccnc3cc(Cl)ccc23)ccc1O.Cl.Cl.Cl | DILI positive (test set)
8) O=S(=O)(O)O.Oc1cccc2cccnc12.Oc1cccc2cccnc12 [OXYQUINOLINE SULFATE] | DILI positive (test set)

Reported Hepatotoxicity ( `COc1cc(Cc2cnc(N)nc2N)cc(OC)c1OC` ) = DILI positive (test set)

----------
Test system: Hepatotoxicity
Experiment: Human drug-induced liver injury (DILI) modelling dataset from Ekins et al
readout.kind: Hepatotoxicity

# example entries with known answers
1. Cc1c(C)c2c(c(C)c1O)CCC(C)(COc1ccc(CC3SC(=O)NC3=O)cc1)O2 (stereo not given) [TROGLITAZONE] | DILI positive (test set)
2. CC(C)NCC(O)COc1cccc2ccccc12 (stereo not given) [PROPRANOLOL] | DILI negative (test set)
3. CCCCC(=O)O [VALERIC ACID] | DILI negative (test set)
4. C[C@@H]1C[C@H]2[C@@H]3CCC4=CC(=O)C=C[C@]4(C)[C@@]3(Cl)[C@@H](O)C[C@]2(C)[C@@]1(OC(=O)c1ccco1)C(=O)CCl [MOMETASONE FUROATE] | DILI negative (test set)
5. CN1CCN(CCCN2c3ccccc3Sc3ccc(Cl)cc32)CC1.O=C(O)/C=C\C(=O)O.O=C(O)/C=C\C(=O)O [PROCHLORPERAZINE MALEATE] | DILI positive (test set)

Proceeding to the next compound to report its Hepatotoxicity.
Reported Hepatotoxicity ( CC(C(=O)O)c1ccc2oc(-c3ccc(Cl)cc3)nc2c1 (stereo not given) [BENOXAPROFEN] ) = DILI positive (test set)

----------
Tested on: Hepatotoxicity
Assay: Human drug-induced liver injury (DILI) modelling dataset from Ekins et al
readout.kind: Hepatotoxicity

1. Cc1ccccc1N1C(=O)c2cc(S(N)(=O)=O)c(Cl)cc2NC1C (centres undefined) | DILI positive (test set)
2. CN1CCC(=C2c3ccccc3CCc3cccnc32)CC1.O=C(O)/C=C\C(=O)O.O=C(O)/C=C\C(=O)O [AZATADINE MALEATE] | DILI positive (test set)
3. CCCC(C)(COC(N)=O)COC(N)=O [MEPROBAMATE] | DILI positive (test set)

----------
Test system: Hepatotoxicity
Assay: Human drug-induced liver injury (DILI) modelling dataset from Ekins et al
readout.kind: Hepatotoxicity

1) O=[As][As+](=O)[O-] (centres undefined) [ARSENIC TRIOXIDE] | DILI positive (test set)
2) O=C1CCC(=O)N1c1cc(Cl)cc(Cl)c1 | DILI positive (test set)
3) CC(=O)N1CCN(c2ccc(OCC3COC(Cn4ccnc4)(c4ccc(Cl)cc4Cl)O3)cc2)CC1 (centres undefined) | DILI positive (test set)

----------
System: Hepatotoxicity
Assay: Human drug-induced liver injury (DILI) modelling dataset from Ekins et al
readout.kind: Hepatotoxicity

1) CCCCCOC(=O)c1ccccc1C(=O)OCCCCC | DILI positive (test set)
2) CS(=O)(=O)CCNCc1ccc(-c2ccc3ncnc(Nc4ccc(OCc5cccc(F)c5)c(Cl)c4)c3c2)o1 | DILI positive (test set)
3) CC(C)NNC(=O)c1ccncc1 | DILI positive (test set)
4) Cl.O=C(O)CCCCCCNC1c2ccccc2CCc2ccccc21 [AMINEPTINE HYDROCHLORIDE] | DILI positive (test set)

----------
Test system: Hepatotoxicity
Test: Human drug-induced liver injury (DILI) modelling dataset from Ekins et al
readout.kind: Hepatotoxicity

1) O=C1NCN(c2ccccc2)C12CCN(CCCC(c1ccc(F)cc1)c1ccc(F)cc1)CC2 | DILI positive (test set)
2) O=[N+]([O-])O[C@H]1CO[C@H]2[C@@H]1OC[C@H]2O[N+](=O)[O-] [ISOSORBIDE DINITRATE] | DILI negative (test set)
3) COC(=O)C(c1ccccc1)C1CCCCN1 (stereo not drawn) [METHYLPHENIDATE] | DILI positive (test set)
4) COc1cccc2c1C(=O)c1c(O)c3c(c(O)c1C2=O)C[C@@](O)(C(=O)CO)C[C@@H]3O[C@H]1C[C@H](N)[C@H](O)[C@H](C)O1 | DILI negative (test set)

----------
Test system: Hepatotoxicity
Assay: Human drug-induced liver injury (DILI) modelling dataset from Ekins et al
Conditions: Liver
readout.kind: Hepatotoxicity

1. CC(C)(C(=O)O)c1ccc(C(O)CCCN2CCC(C(O)(c3ccccc3)c3ccccc3)CC2)cc1 (stereo unspecified) [FEXOFENADINE] | DILI negative (test set)
2. Cc1ncc(C[n+]2csc(CCO)c2C)c(N)n1 | DILI negative (test set)

----------
Tested on: Hepatotoxicity
Assay: Human drug-induced liver injury (DILI) modelling dataset from Ekins et al
Counter-ions that a name gives are not always drawn.
readout.kind: Hepatotoxicity

1. O=c1[nH]cc(F)c(=O)[nH]1 | DILI positive (test set)
2. ClC(Cl)(Cl)Cl [CARBON TETRACHLORIDE] | DILI positive (test set)
3. CC(C)c1nc(CN(C)C(=O)N[C@H](C(=O)N[C@@H](Cc2ccccc2)C[C@H](O)[C@H](Cc2ccccc2)NC(=O)OCc2cncs2)C(C)C)cs1 | DILI positive (test set)
4. Brc1ccccc1 | DILI positive (test set)
5. CCOC(=O)C1(c2ccccc2)CCN(CCC(C#N)(c2ccccc2)c2ccccc2)CC1.Cl [DIPHENOXYLATE HYDROCHLORIDE] | DILI negative (test set)

Reported Hepatotoxicity ( C=CCOC=O [ALLYL FORMATE] ) = DILI positive (test set)

Reported Hepatotoxicity ( `S=C=Nc1ccc2ccccc2c1` ) = DILI negative (test set)

Reported Hepatotoxicity ( `FCCCCCF` ) = DILI positive (test set)

----------
Tested on: Hepatotoxicity
Test: Human drug-induced liver injury (DILI) modelling dataset from Ekins et al
readout.kind: Hepatotoxicity

1) CCOc1nc2cccc(C(=O)O)c2n1Cc1ccc(-c2ccccc2-c2nnn[nH]2)cc1 | DILI negative (test set)
2) Cc1nc(C)c2c(n1)N(Cc1ccc(-c3ccccc3-c3nnn[nH]3)cc1)C(=O)CC2 | DILI positive (test set)
3) Nc1nc(=O)c2c([nH]1)NCC(CNc1ccc(C(=O)N[C@@H](CCC(=O)[O-])C(=O)[O-])cc1)N2C=O.[Ca+2] (stereo not given in full) | DILI negative (test set)
4) CC1=CC(=O)c2ccccc2C1=O | DILI positive (test set)
5) CCOc1ccc2ccccc2c1C(=O)N[C@@H]1C(=O)N2[C@@H]1SC(C)(C)[C@@H]2C(=O)[O-].O.[Na+] [NAFCILLIN SODIUM] | DILI negative (test set)
6) CC[C@H]1OC(=O)[C@H](C)[C@@H](O[C@H]2C[C@@](C)(OC)[C@@H](O)[C@H](C)O2)[C@H](C)[C@@H](O[C@@H]2O[C@H](C)C[C@H](N(C)C)[C@H]2O)[C@](C)(OC)C[C@@H](C)C(=O)[C@H](C)[C@@H](O)[C@]1(C)O | DILI positive (test set)

Form field, Hepatotoxicity with Hepatotoxicity, item `CO[C@H]1/C=C/O[C@@]2(C)Oc3c(C)c(O)c4c(O)c(c(/C=N/N5CCN(C)CC5)c(O)c4c3C2=O)NC(=O)/C(C)=C\C=C\[C@H](C)[C@H](O)[C@@H](C)[C@@H](O)[C@@H](C)[C@H](OC(C)=O)[C@@H]1C` : DILI negative (test set)

Form field, Hepatotoxicity with Hepatotoxicity, item CC1CN(c2cc3c(cc2F)c(=O)c(C(=O)O)cn3-c2ccc(F)cc2F)CCN1 (stereo not given) : DILI positive (test set)

Form field, Hepatotoxicity with Hepatotoxicity, item `Cc1cc(C(=O)NNCc2ccccc2)no1` : DILI negative (test set)

----------
Tested on: Hepatotoxicity
Assay: Human drug-induced liver injury (DILI) modelling dataset from Ekins et al
readout.kind: Hepatotoxicity

# example entries with known answers
1) Cc1ccc(-c2nc3ccc(C)cn3c2CC(=O)N(C)C)cc1 | DILI negative (test set)
2) CC[C@]1(O)C[C@H]2CN(CCc3c([nH]c4ccccc34)[C@@](C(=O)OC)(c3cc4c(cc3OC)N(C=O)[C@H]3[C@@](O)(C(=O)OC)[C@H](OC(C)=O)[C@]5(CC)C=CCN6CC[C@]43[C@@H]65)C2)C1.O=S(=O)(O)O [VINCRISTINE SULFATE] | DILI positive (test set)
3) CN1CCC[C@@H]1CCO[C@](C)(c1ccccc1)c1ccc(Cl)cc1.O=C(O)/C=C/C(=O)O [CLEMASTINE FUMARATE] | DILI negative (test set)
4) CNCC[C@@H](Oc1ccccc1C)c1ccccc1 | DILI positive (test set)

Proceeding to the next molecule to report its Hepatotoxicity.
Form field, Hepatotoxicity with Hepatotoxicity, item CC1(C)S[C@@H]2[C@H](NC(=O)[C@H](N)c3ccccc3)C(=O)N2[C@H]1C(=O)[O-].[Na+] [AMPICILLIN SODIUM] : DILI negative (test set)
